Ok so here's the combined literature set: pKi for Beta-secretase 2 (Homo sapiens, UniProt Q9Y5Z0).
pKi: −log10 of the molar value.
assay.endpoint: pKi

Answered examples (8):
CC1(C)C(=N)N[C@@]2(COCc3ccc(NC(=O)c4ccc(OCF)cn4)cc32)CS1(=O)=O :: 7.89
COc1ccnc(Oc2ccc(F)c([C@]34CO[C@@H](C)C[C@H]3C(=O)N(C)C(=N)N4)c2)c1 :: 7.82
CC(C)COc1ccc(F)c([C@]23CO[C@@H](C)C[C@H]2S(=O)(=O)C(C)(C)C(=N)N3)c1 :: 7.50
CN1C(=N)N[C@@]2(c3cc(OCC45CC(C4)C5)ccc3F)CO[C@@H](C3CC3)C[C@H]2C1=O :: 8.40
CN1C(=N)N[C@](C)(c2cc(-c3nnc(-c4cscn4)o3)ccc2F)CS1(=O)=O :: 5.81
CN1C(=N)N[C@@]2(c3cc(OCC(F)(F)F)ccc3F)CO[C@@H](C3CC3)C[C@H]2C1=O :: 5.34
CN1C(=N)N[C@](C)(c2cc(NC(=O)c3ccc(Cl)cn3)ccc2F)C2(CC2)S1(=O)=O :: 8.70
CN1C(=N)N[C@@]2(c3cc(Br)ccc3F)COCC[C@H]2C1=O :: 6.53

a: CN1C(=N)N[C@@]2(c3cc(Oc4ccnc(C(F)F)c4)ccc3F)CO[C@@H](C3CC3)C[C@H]2C1=O
b: COc1ccc(C(=O)Nc2ccc(F)c([C@@]3(C)NC(=N)N(C)S(=O)(=O)C34CC4)c2)nc1
Data request: Could you tell me which of a and b has the lower pKi reading? Answer = label.
Data returned: a
(a: 6.64, b: 7.77)
